From: the Human Domainome abundance scans (Beltran et al. 2025)

A collection of variants and their measured abundance fitness
B1: POU domain, class 3, transcription factor 2, residues 262 to 338; numbered along this chain, P20265 (parent)
chain: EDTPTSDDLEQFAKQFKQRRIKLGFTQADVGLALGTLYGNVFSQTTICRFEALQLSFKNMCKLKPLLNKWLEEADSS

# Variants of: B1
# procedure text: abundance fitness (aPCA) (normalised: wild type 0, dead -1); higher = more abundant; growth selection in yeast, the domain comes from the species named
# condition details: Homo sapiens

{"monomer sequence": "EDTPTSDDLEQFAKQFKQRRIKLGFTQADVGLALGTLYGNVFSQTTICRFEALQLSFKNMCKLKPLLNKWLEEADIS", "abundance fitness": -0.153}
{"monomer sequence": "EDTPTSDDLEQFAKQFKQRRIKLGFTQADVGLALGTLYGNVFSQTTICRFEALQLEFKNMCKLKPLLNKWLEEADSS", "abundance fitness": -0.128}
{"monomer sequence": "EDTPTSDDLEQFAKQFKQRRIKLGFTQADVGLKLGTLYGNVFSQTTICRFEALQLSFKNMCKLKPLLNKWLEEADSS", "abundance fitness": -0.264}
{"monomer sequence": "EDTPTSDDLEQFAKQFKQRRIKCGFTQADVGLALGTLYGNVFSQTTICRFEALQLSFKNMCKLKPLLNKWLEEADSS", "abundance fitness": -0.313}
{"monomer sequence": "EDTPTSDDLEQFAKQFKQRRIKLGFTQADVGLALGTLYGNVFSQTTICRFEALQLSFKNMCKLKPLLNKWLEEAGSS", "abundance fitness": -0.032}
{"monomer sequence": "EDTPTSDDLEQFAKQFKQRRIKLGFVQADVGLALGTLYGNVFSQTTICRFEALQLSFKNMCKLKPLLNKWLEEADSS", "abundance fitness": -0.797}
{"monomer sequence": "EDTPTSDDLEQFAKQFKVRRIKLGFTQADVGLALGTLYGNVFSQTTICRFEALQLSFKNMCKLKPLLNKWLEEADSS", "abundance fitness": -0.145}
{"monomer sequence": "EDTPTSDDLEQFAKQFKQRRIKLGFTQADVGLALGTLYGNVFSQTTICRQEALQLSFKNMCKLKPLLNKWLEEADSS", "abundance fitness": -0.624}
{"monomer sequence": "EDTPTSDDLEQFAKQFKQRRIKLGFTQADVGLALGTLYGNVFSQTTICRFEALQLSFKNMCKLKPLLNYWLEEADSS", "abundance fitness": 0.138}
{"monomer sequence": "EDTPTSDDLEQFAKQFKQRRIDLGFTQADVGLALGTLYGNVFSQTTICRFEALQLSFKNMCKLKPLLNKWLEEADSS", "abundance fitness": 0.041}
{"monomer sequence": "EDTPTSDDLEQFAKQFKQRRIKLGFTQADVGLALGTLYGNVFSQTQICRFEALQLSFKNMCKLKPLLNKWLEEADSS", "abundance fitness": -0.058}
{"monomer sequence": "EDTPTSDDLEQFAKQFKQRRIKLGFTQVDVGLALGTLYGNVFSQTTICRFEALQLSFKNMCKLKPLLNKWLEEADSS", "abundance fitness": -0.204}
{"monomer sequence": "EDTPTSDDLEQFAKQFKQRRIKLGFTQADVGLALGTLYGNVFSQTTICRFEALQLSFKNMCKLKPLENKWLEEADSS", "abundance fitness": -0.936}
{"monomer sequence": "EDTPTSDDLEQFAKQFKQRRIKLGFTQADVGLALGTLYGNVFSQTTICRFEALQHSFKNMCKLKPLLNKWLEEADSS", "abundance fitness": -0.266}
{"monomer sequence": "EDTPTSDDLEQFAKQFKQRRIKLGFTQADVGLALGTLYGDVFSQTTICRFEALQLSFKNMCKLKPLLNKWLEEADSS", "abundance fitness": 0.016}
{"monomer sequence": "EDTPTSDDLEQFAKQFKQRRIKLGFTQWDVGLALGTLYGNVFSQTTICRFEALQLSFKNMCKLKPLLNKWLEEADSS", "abundance fitness": -0.301}
{"monomer sequence": "EDTPTSDDLEQFAKQFKQRRIKLGFTQADVGLRLGTLYGNVFSQTTICRFEALQLSFKNMCKLKPLLNKWLEEADSS", "abundance fitness": -0.102}
{"monomer sequence": "EDTPTSDDLEQFAKQFKQRRIKLGLTQADVGLALGTLYGNVFSQTTICRFEALQLSFKNMCKLKPLLNKWLEEADSS", "abundance fitness": -0.08}
{"monomer sequence": "EDTPTSDDLEQFAKQFKQRRIKLGFTQANVGLALGTLYGNVFSQTTICRFEALQLSFKNMCKLKPLLNKWLEEADSS", "abundance fitness": -0.228}
{"monomer sequence": "EDTPTSDDLEQFAKQFKQRRIKLGFTQADVGLALGTLYGNVFSQTTICRFEALQLSFKNVCKLKPLLNKWLEEADSS", "abundance fitness": -0.553}
{"monomer sequence": "EDTPTSDDLEQFAKQFKQRRIKLGFTQADVGLALGTLYGNVFSQTTICRFSALQLSFKNMCKLKPLLNKWLEEADSS", "abundance fitness": -0.88}
{"monomer sequence": "EDTPTSDDLEQFAKQFKQRRIKLGFTQADVGLALGTLYGNVFSQTTICRFEALQLSFKNMCKLAPLLNKWLEEADSS", "abundance fitness": -0.06}
{"monomer sequence": "EDTPTSDDLEQFAKQFKQRRIKLGFTQADVGLALGTLYGNVFSQTTICRFEALQLSMKNMCKLKPLLNKWLEEADSS", "abundance fitness": -0.046}
{"monomer sequence": "EDTPTSDDLEQFAKQFKQRRIKLGFTQADVGLALGTLRGNVFSQTTICRFEALQLSFKNMCKLKPLLNKWLEEADSS", "abundance fitness": -0.27}
{"monomer sequence": "EDTPTSDDLEQFAKQFKQRRIKLGFTQADVGLALGTLYGNVTSQTTICRFEALQLSFKNMCKLKPLLNKWLEEADSS", "abundance fitness": -0.061}
{"monomer sequence": "EDTPTSDDLEQFAKQFKQRRIKLGFTQADVGLALGTLYGNVFSQTTICRPEALQLSFKNMCKLKPLLNKWLEEADSS", "abundance fitness": -0.756}
{"monomer sequence": "EDTPTSDDLEQFAKQFKQRRIKLGFTQADVGLALGTLYGNVFSQTTICRFELLQLSFKNMCKLKPLLNKWLEEADSS", "abundance fitness": -0.111}
{"monomer sequence": "EDTPTSDDLEQFAKQFKQRRIKLGFTQADVGLALGTLYGNVFSQTTICRFEALQLSFKNMCKLKPLLNKWLEESDSS", "abundance fitness": -0.168}
{"monomer sequence": "EDTPTSDDLEQFAKQFKQRRIKLGFTQADVGLALGTLIGNVFSQTTICRFEALQLSFKNMCKLKPLLNKWLEEADSS", "abundance fitness": -0.298}
{"monomer sequence": "EDTPTSDDLEQFAKQFKQRRIKLGFTQADVGLALGTLYGNVFSQTTICRFEALQLSFKNRCKLKPLLNKWLEEADSS", "abundance fitness": -0.706}
{"monomer sequence": "EDTPTSDDLEQFAKQFKQRRIKLGFTQADVGLALGTLYGNVFSQTTICRFEALQLSFKNMCKLRPLLNKWLEEADSS", "abundance fitness": -0.092}
{"monomer sequence": "EDTPTSDDLEQFAKQFKQRRIKLGFTQADVGLALGTLYGNVFSQTTICRFEALQLSFKNMCKLKPLKNKWLEEADSS", "abundance fitness": -0.688}
{"monomer sequence": "EDTPTSDDLEQFAKQFKQRRIKLGFTQADVGLALGTLYGNVFSQTTICRFEALQLSFKRMCKLKPLLNKWLEEADSS", "abundance fitness": 0.059}
{"monomer sequence": "EDTPTSDDLEQFAKQFKQRRIKYGFTQADVGLALGTLYGNVFSQTTICRFEALQLSFKNMCKLKPLLNKWLEEADSS", "abundance fitness": -0.139}
{"monomer sequence": "EDTPTSDDLEQFAKQEKQRRIKLGFTQADVGLALGTLYGNVFSQTTICRFEALQLSFKNMCKLKPLLNKWLEEADSS", "abundance fitness": -0.618}
{"monomer sequence": "EDTPTSDDLEQFAKQFKQRRIKLGFTQADVGLALGTLYGFVFSQTTICRFEALQLSFKNMCKLKPLLNKWLEEADSS", "abundance fitness": -0.173}
{"monomer sequence": "EDTPTSDDLEQFAKQFKQRRIKLGFTQADVGLALGTLYGNVFSQTTICRFEALQLSFKNMCKLFPLLNKWLEEADSS", "abundance fitness": -0.264}
{"monomer sequence": "EDTPTSDDLEQFAKQFKQRRIKLGFTQADVGLALGTLYGNVFSQTTICRFEALQLSFKNMCKLKPLLNKWLEEAESS", "abundance fitness": 0.071}
{"monomer sequence": "EDTPTSDDLEQFAKQFKQRRIKLGFTQADVGLALGTLYGNVFSQTTICRFEALWLSFKNMCKLKPLLNKWLEEADSS", "abundance fitness": -0.436}
{"monomer sequence": "EDTPTSDDLEQFAKQFKGRRIKLGFTQADVGLALGTLYGNVFSQTTICRFEALQLSFKNMCKLKPLLNKWLEEADSS", "abundance fitness": -0.273}
{"monomer sequence": "EDTPTSDDLEQFAKQFKQRRIKLGFTQADVGLALGTLYGNVFSQTTICRFEALQLSFWNMCKLKPLLNKWLEEADSS", "abundance fitness": -0.235}
{"monomer sequence": "EDTPTSDDLEQFAKQFKQRRIKLGFTQADVGLALGTLYGNVFSQTTICRFEALQLSFKNMCKLKPLLNKWLEKADSS", "abundance fitness": 0.118}
{"monomer sequence": "EDTPTSDDLEQFAKQFKQRRIKLGFTQADVGLALGTLYGNVFSQTTICRFEALQLSFKNMCKLKPLLNLWLEEADSS", "abundance fitness": -0.144}
{"monomer sequence": "EDTPTSDDLEQFAKQFKQRRIKLGFTQADVGLALGTLYGNVFSQTTICRFEALQLSFKNMCKLKPLLNKWLMEADSS", "abundance fitness": -0.117}
{"monomer sequence": "EDTPTSDDLEQFAKQFMQRRIKLGFTQADVGLALGTLYGNVFSQTTICRFEALQLSFKNMCKLKPLLNKWLEEADSS", "abundance fitness": -0.171}
{"monomer sequence": "EDTPTSDDLEQFAKQFKQRRIKLGFTQADVGLALGTLYGNVFSQTTICRFEHLQLSFKNMCKLKPLLNKWLEEADSS", "abundance fitness": -0.213}
